Hey, just so you know, these numbers are from paper PMC9482650.

# TARGET OR TEST SYSTEM: MAST2, Q6P0Q8
# Sequence (Q6P0Q8 1099-1202): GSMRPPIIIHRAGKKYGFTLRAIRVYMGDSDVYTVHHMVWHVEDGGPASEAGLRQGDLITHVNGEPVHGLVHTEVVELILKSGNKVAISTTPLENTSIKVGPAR
# METHOD: holdup assay
# Design: key: below the threshold = too weak to quantify, mostly under pKd 3.1 to 4
# EXPERIMENTAL PARAMETERS: plain residues with an end cap or a label only (N-terminal biotin on a linker: ado-ado)
What pKd was measured for each of the following?
Simply state the number, no unit and no words.

Given the entry QSGLYESEEL [MYOT, Q9UBF9] , report its measured pKd.
4.88

Another binder to check: NVYGIESVKI [GRIA2, P42262]
4.35

Further, for PSVGSKKTVL [REELD1, A0A1B0GV85] ?
5.05

How about this binder: LKDDELKTKL [SLCO1A2, P46721]
5.28

Now consider SRSVVESDEL [MYPN, Q86TC9] .
4.46

Entry APIAGFSSFV [SDK2, Q58EX2] please
4.73

Follow-up entry: DPAESMESLV [PTPRG, P23470]
4.69

And what about the binder GEDRSPPTAL [MKNK1, Q9BUB5] ?
4.85

Also, VKRNSKETVV [MARCHF3, Q86UD3] please.
4.68

Further, for LESTTVGTSV [KARS1, Q15046] ?
5.02

Lookup EDLEDEWEVI [TECPR2, O15040]
4.14

Again, but for ARESQKVSHV [FAM110B, Q8TC76]
4.76

What do we get for PTPDLPQTRV [KLHDC7A, Q5VTJ3] ?
5.2

For DFLSTFHIRI [CIB2, O75838] then?
4.68

Another: TRKRSGEAAV [PFKM, P08237]
4.16

Now give it for GIKKITSTAL [RPS6KA3, P51812] too.
5.88

Same question for PSHPRLQTHV [KIRREL2, Q6UWL6] please.
5.5

Ok, now RDPPAEWTRV [PTPN18, Q99952]
5.62
